# Tested on: Candida albicans
# assayComment: Antifungal activity against Candida albicans ATCC 10231 after 48 hrs
# Format: functional
# conditionParameters: ATCC 10231, 48 h
endpointLabel: MIC

# annotated cases, reported MIC shown
O=[N+]([O-])c1ccc2c(c1)c(OCc1ccccc1)nn2CCOCCN1CCN(C/C=C/c2ccccc2)CC1; > 250 µg/mL
C=CCNC(=S)N/N=C/c1ccc2c(c1)=[N+]([O-])C(C)(C)[N+]=2[O-]; > 250 µg/mL
O=[N+]([O-])c1ccc2c(c1)c(OCc1ccccc1)nn2CCCCCN1CCN(C/C=C/c2ccccc2)CC1; > 250 µg/mL
CN(C/C=C/C#CC(C)(C)C)Cc1cccc2ccccc12 [TERBINAFINE]; 1.56 µg/mL
C=CCNC(=S)N/N=C/c1ccc2no[n+]([O-])c2c1; > 250 µg/mL
Cc1c(C(=O)Nc2ccccc2)[n+]([O-])c2cc(CN3CCN(C/C=C/c4ccccc4)CC3)ccc2[n+]1[O-]; > 250 µg/mL
C=CCNC(=S)N/N=C/c1ccc2c(c1)[n+]([O-])c(C(=O)Nc1ccccc1)c(C)[n+]2[O-]; > 250 µg/mL
CC(=O)N1CCN(c2ccc(OCC3COC(Cn4ccnc4)(c4ccc(Cl)cc4Cl)O3)cc2)CC1 (centres undefined) [KETOCONAZOLE]; 0.5 µg/mL

Now for the compound whose MIC we want.
Query: Reported MIC for "C=CCNC(=S)N/N=C/c1ccc2c(c1)[n+]([O-])c(C)c(C)[n+]2[O-]" : what is it?
Response: > 250 µg/mL
